protocol: Association constant Ka of the compound
Format: physicochemical
Square brackets hold non-standard residues; d marks the D form. Peptide text beside a SMILES is read from it. * marks the point of attachment. pY = N[C@@H](Cc1ccc(OP(=O)(O)O)cc1)C(=O)O; Hexanoyl = CCCCCC(=O)*; Ahp = NCCCCCCC(=O)O
measurement-name: Ka (×10⁶ /M)
Give the value in ×10⁶ /M but do not write ×10⁶ /M after it.

>  <molecule>
CC(C)[C@@H]1NC(=O)[C@H](CC(N)=O)NC(=O)[C@H](C(C)C)NC(=O)[C@H](Cc2ccc(OP(=O)(O)O)cc2)NC(=O)CCCCCCNC1=O (cyclo([Ahp][pY]VNV))

>  <experimental-value>
2.3

$$$$

Consider now this further molecule.
Ka recorded for this molecule, CCCCCC(=O)N[C@@H](Cc1ccc(OP(=O)(O)O)cc1)C(=O)N[C@H](C(=O)N[C@@H](CC(N)=O)C(=O)N[C@H](C(=O)NC)C(C)C)C(C)C (Hexanoyl-[pY]VNV-NHMe) , is 2.3
